Biological target: Fibroblast growth factor 10 (Homo sapiens) (UniProt O15520)
Sequence (O15520 whole entry, looked up): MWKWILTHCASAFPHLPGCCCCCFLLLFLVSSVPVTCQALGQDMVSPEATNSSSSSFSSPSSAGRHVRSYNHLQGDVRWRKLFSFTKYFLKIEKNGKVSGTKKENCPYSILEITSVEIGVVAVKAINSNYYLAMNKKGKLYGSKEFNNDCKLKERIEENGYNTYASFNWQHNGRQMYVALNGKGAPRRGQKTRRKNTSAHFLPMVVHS
Assay: FGF10 binders on small-molecule microarrays, primary screen, biochemical, small-molecule microarray, 635 nm fluorescence (AID 1102)
Conditions: FGF10 binding, fluorescence 635 nm, higher = more signal
Grouping by measured composite z-score is done with the following cut points: lo: < 0.01; med: ≥ 0.01 and < 0.5; hi: ≥ 0.5

Qu. Which class does `Cc1ccc(F)cc1S(=O)(=O)N[C@@H]1CCN(Cc2ccc(OC(C)C)cc2)C1` fall in?
Ans. lo

Qu. Which class does `CCCC=C(CCC)[C@@H](NP(=O)(c1ccccc1)c1ccccc1)c1ccc(C(F)(F)F)cc1` fall in?
Ans. med

Qu. Which class does `COC(=O)[C@@]1(Cc2ccc(F)cc2)[C@H]2c3cc(C(=O)N4CCCC4)n(CCF)c3C[C@H]2CN1C(=O)c1ccccc1` fall in?
Ans. hi

Qu. Which class does `NC(N)=NCc1cn(CCc2c[nH]c3ccccc23)nn1` fall in?
Ans. med

Qu. Which class does `COCCOC(=O)N1C(=O)[C@@]2(c3cc(C#CC4=CCCCC4)ccc31)[C@H](c1ccc(O)cc1)N1[C@H](c3ccccc3)[C@H](c3ccccc3)OC(=O)[C@H]1[C@@H]2C(=O)Nc1nc2ccccc2s1` fall in?
Ans. hi

Qu. Which class does `O=C1O[C@@H](c2ccccc2)[C@@H](c2ccccc2)N2[C@@H](c3ccccc3OCCO)[C@]3(C(=O)Nc4ccc(C#CCCO)cc43)[C@@H](C(=O)N3CCN(c4ncccn4)CC3)[C@H]12` fall in?
Ans. med

Qu. Which class does `CC(C)CNC(=O)[C@@H]1c2ccccc2C(=O)N(Cc2cc(F)cc(C(F)(F)F)c2)[C@H]1c1ccc(CO)cc1` fall in?
Ans. med

Qu. Which class does `COc1ccc([Si](C)(C)[C@@H]2[C@@H](CCO)O[C@]3(C(=O)N(Cc4cccc(N5C(=O)c6ccccc6Oc6ccccc65)c4)c4ccccc43)[C@H]2C)cc1` fall in?
Ans. lo

Qu. Which class does C=C1C2CC3C(=C4C(CO[C@@H]4[C@H]4CCCN4S(=O)(=O)c4ccccc4[N+](=O)[O-])C4C(=O)N(C)C(=O)C34)CC2C(=O)N1C (some centres undefined) fall in?
Ans. med

---

Test: small-molecule binders of probe aInhba, primary screen, biochemical, small-molecule microarray, 635/667 nm fluorescence (AID 1148);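 further: score merges 667nm spot fluorescence with signal-to-noise for antibody binding to printed compounds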
Details: higher = more signal
readout.name: composite z-score

Qu. I am curious: what composite z-score value has been reported for `CCCC[C@@H]1C[C@H]1[C@@H](NC(=O)c1ccccc1)c1ccc(Cl)cc1` ?
Ans. -0.322

Qu. I am curious: what composite z-score value has been reported for CN1C(=O)C2C=CC(C(O)Cc3ccccc3)N(N(c3ccccc3)c3ccccc3)C2C1=O (centres undefined) ?
Ans. 0.191

Qu. I am curious: what composite z-score value has been reported for `CCOC(=O)[C@@H]1[C@@H]2C(=O)N(CC)C(=O)[C@@H]2C[C@@H]1Sc1ccccc1` ?
Ans. 0.0357

Qu. I am curious: what composite z-score value has been reported for `COCCOC(=O)N1C(=O)[C@@]2(c3cc(C#CC4=CCCCC4)ccc31)[C@H](C(=O)N1CCN(c3ncccn3)CC1)[C@H]1C(=O)O[C@H](c3ccccc3)[C@H](c3ccccc3)N1[C@@H]2c1ccc(O)cc1` ?
Ans. -0.0736
